// reported Tapped density per item
# test-name: Tapped density (Test Example 1)
# Assay type: physicochemical
# test-conditions: sieved 18 mesh, tapped 180 times, W/V1
measurement-kind: Tapped density (g/mL)

- CCCCOC(=O)N=C(N)c1ccc(OCCCC2CCN(CCCOc3ccc(C(N)=NC(=O)OCCCC)cc3)CC2)cc1 [Type I crystal]: 0.22
- CCCCOC(=O)N=C(N)c1ccc(OCCCC2CCN(CCCOc3ccc(C(N)=NC(=O)OCCCC)cc3)CC2)cc1 [Type II crystal]: 0.40
- CCCCOC(=O)N=C(N)c1ccc(OCCCC2CCN(CCCOc3ccc(C(N)=NC(=O)OCCCC)cc3)CC2)cc1 [Type III crystal]: 0.45
- CCCCOC(=O)N=C(N)c1ccc(OCCCC2CCN(CCCOc3ccc(C(N)=NC(=O)OCCCC)cc3)CC2)cc1 [Type IV crystal]: 0.47

====

# test-name: Adhesion test to a metal cup (Test Example 4)
# Format: physicochemical
# test-conditions: 5 g test material in SUS304 metal cup, weight adhering after turning over the cup
measurement-kind: Adhering amount (mg)

• CCCCOC(=O)N=C(N)c1ccc(OCCCC2CCN(CCCOc3ccc(C(N)=NC(=O)OCCCC)cc3)CC2)cc1 [Type III crystal] = 22
• CCCCOC(=O)N=C(N)c1ccc(OCCCC2CCN(CCCOc3ccc(C(N)=NC(=O)OCCCC)cc3)CC2)cc1 [Type II crystal] = 17
• CCCCOC(=O)N=C(N)c1ccc(OCCCC2CCN(CCCOc3ccc(C(N)=NC(=O)OCCCC)cc3)CC2)cc1 [Type IV crystal] = 40
• CCCCOC(=O)N=C(N)c1ccc(OCCCC2CCN(CCCOc3ccc(C(N)=NC(=O)OCCCC)cc3)CC2)cc1 [Type I crystal] = 70

====

# test-name: Sticking test, scraper pressure of tablets (Test Example 3)
# Format: physicochemical
# test-conditions: tablets containing 200 mg, diameter 8.5 mm, loading pressure 10 kN
// reported Scraper pressure per item
measurement-kind: Scraper pressure (kN)

* CCCCOC(=O)N=C(N)c1ccc(OCCCC2CCN(CCCOc3ccc(C(N)=NC(=O)OCCCC)cc3)CC2)cc1 [Type II crystal] | 2.9
* CCCCOC(=O)N=C(N)c1ccc(OCCCC2CCN(CCCOc3ccc(C(N)=NC(=O)OCCCC)cc3)CC2)cc1 [Type III crystal] | 1.9
* CCCCOC(=O)N=C(N)c1ccc(OCCCC2CCN(CCCOc3ccc(C(N)=NC(=O)OCCCC)cc3)CC2)cc1 [Type IV crystal] | 2.9
* CCCCOC(=O)N=C(N)c1ccc(OCCCC2CCN(CCCOc3ccc(C(N)=NC(=O)OCCCC)cc3)CC2)cc1 [Type I crystal] | 7.2
